# TESTED_SYSTEM: Calmodulin-1 (Homo sapiens) (UniProt P0DP23)
# TEST_PROTOCOL: CALM1 binders on microarrays, EGTA buffer, profiling panel, biochemical, small-molecule microarray, Cy5-labelled CALM1 (AID 1111);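 note: labelled calmodulin applied in Tris saline Tween buffer holding calcium plus EGTA and DTT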
# MEASUREMENT_SETUP: Cy5-CALM1 binding fluorescence, higher = more signal
# cutoff -0.2 applies to composite z-score; >= gives Satisfied, < gives Not satisfied

MOLECULE	TESTED_SYSTEM	ASSIGNED_LABEL
CCOC(=O)[C@H](CC(C)C)NC(=O)CCC1CC(OC(=O)NCCc2ccc(F)cc2)CC2(CCCC(COC(=O)NCCCN3CCCC3=O)O2)O1 (some centres undefined)	Calmodulin-1 (Homo sapiens) (UniProt P0DP23)	Satisfied
COc1ccc(COC(=O)NN=C2C[C@@H](O)[C@@H](O)[C@@H]3[C@@H]4C(=O)N([C@@H](C)c5ccccc5)C(=O)[C@@H]4CC[C@@H]23)cc1	Calmodulin-1 (Homo sapiens) (UniProt P0DP23)	Not satisfied
O=C(NCCC[N+]1=CC=NC1c1ccccc1)N1CCCc2nc(-c3ccc(Br)cc3)ccc21 (centres undefined)	Calmodulin-1 (Homo sapiens) (UniProt P0DP23)	Satisfied

Check this molecule for composite z-score at or above -0.2: C[C@@H](c1ccccc1)N1C(=O)[C@H]2[C@H]3[C@H](O)[C@H](O)CC(=NOC[C@@H](O)COCc4ccco4)[C@H]3CC[C@H]2C1=O
Not satisfied

Check this molecule for composite z-score at or above -0.2: COc1cccc([C@H]2Oc3ccc(OC)cc3C(=NO[C@@H](C)c3cc(-c4c(C)cc(C)cc4C)no3)[C@@H]2O)c1
Not satisfied

Check this molecule for composite z-score at or above -0.2: CCOC(=O)NN=C1C[C@@H](O)[C@@H](O)[C@@H]2[C@@H]3C(=O)N(c4ccc(F)cc4F)C(=O)[C@@H]3CC[C@H]12
Not satisfied

Check this molecule for composite z-score at or above -0.2: COc1ccc(COC(=O)NN=C2C[C@@H](O)[C@@H](O)[C@@H]3[C@@H]4C(=O)N(C5CCCCC5)C(=O)[C@@H]4CC[C@@H]23)cc1
Not satisfied

Check this molecule for composite z-score at or above -0.2: O=C1[C@H]2[C@H]3[C@H](O)[C@H](O)CC(=NO[C@@H]4O[C@H](CO)[C@@H](O)[C@H](O)[C@H]4O)[C@@H]3CC[C@H]2C(=O)N1c1cccc(Oc2ccccc2)c1
Satisfied
